Target: MRGPRX2 (Homo sapiens, UniProt Q96LB1)
Sequence (Q96LB1 1-330): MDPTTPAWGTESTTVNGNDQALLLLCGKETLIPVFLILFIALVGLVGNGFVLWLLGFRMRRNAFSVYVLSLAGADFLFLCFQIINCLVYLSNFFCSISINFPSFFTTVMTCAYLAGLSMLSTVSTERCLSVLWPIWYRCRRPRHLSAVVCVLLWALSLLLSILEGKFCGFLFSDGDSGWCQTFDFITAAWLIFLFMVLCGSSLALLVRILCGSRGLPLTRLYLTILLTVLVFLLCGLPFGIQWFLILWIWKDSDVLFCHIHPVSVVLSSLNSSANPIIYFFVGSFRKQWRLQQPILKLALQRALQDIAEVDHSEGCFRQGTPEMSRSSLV
Assay: GPCR reactivity screen, PathHunter β-Arrestin, agonist assay MRGPRX2; also: test concentration or dose not given here
Assay type: cell-based
Details: agonist mode; control cortistatin 14
ENDPOINT LABEL: MRGPRX2 (Agonist) percent activity (%)
Give the quantity in %, number only.

- CCCc1cc(O)c(C/C=C(\C)CCC=C(C)C)c(O)c1C(=O)O: −1
- C=C(C)[C@@H]1CCC(C)=C[C@H]1c1c(O)cc(CC)cc1O: 1
- CCCCCc1cc2c(c(O)c1C(=O)O)C1C3C(CCC3(C)O2)C1(C)C (centres unmarked): 2

*Q* Item `CCCCc1cc(O)c(CC=C(C)CCC=C(C)C)c(O)c1` : provide MRGPRX2 (Agonist) percent activity
*A* 3

*Q* Supply measured MRGPRX2 (Agonist) percent activity of CCCc1cc(O)c2c(c1)OC(C)(C)[C@@H]1CCC(C)=C[C@@H]21 [THCV, tetrahydrocannabivarin] in your reply.
*A* 18

*Q* Consider the molecule `C=C(C)[C@@H]1CCC(C)=C[C@H]1c1c(O)cc(CCCCC)cc1O` and give its recorded MRGPRX2 (Agonist) percent activity.
*A* 11

*Q* Indicate the recorded MRGPRX2 (Agonist) percent activity value for this molecule: `C=C(C)[C@@H]1CCC(C)=C[C@H]1c1c(O)cc(CCC)cc1O`
*A* 3

*Q* Read off the recorded MRGPRX2 (Agonist) percent activity for `C=C(C)[C@@H]1CCC(C)=C[C@H]1c1c(O)cc(CCCCC)c(C(=O)O)c1O`
*A* 4

###

Molecular target: MRGPRX2 (Homo sapiens)
Sequence (Q96LB1 1-330): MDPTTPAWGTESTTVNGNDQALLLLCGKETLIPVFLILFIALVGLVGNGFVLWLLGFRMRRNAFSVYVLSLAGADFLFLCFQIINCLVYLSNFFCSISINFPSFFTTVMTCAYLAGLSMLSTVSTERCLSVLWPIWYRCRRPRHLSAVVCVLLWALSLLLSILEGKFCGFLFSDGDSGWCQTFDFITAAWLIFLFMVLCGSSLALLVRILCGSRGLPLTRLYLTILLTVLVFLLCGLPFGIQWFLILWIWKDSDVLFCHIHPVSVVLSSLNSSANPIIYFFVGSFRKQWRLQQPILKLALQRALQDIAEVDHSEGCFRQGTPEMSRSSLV
Assay: IC50 antagonist activity screen, PathHunter β-Arrestin, MRGPRX2
Format: cell-based
Settings: maximum of IC50 curve
ENDPOINT LABEL: maximum inhibition (antagonism) MRGPRX2 (%)
// note: answer is a bare numeric in %

Observe how each entry below is paired with its result.
- CCCCCCc1cc(O)c(C/C=C(\C)CCC=C(C)C)c(O)c1C(=O)O: 13
- C=C(C)[C@@H]1CCC(C)=C[C@H]1c1c(O)cc(CCCCC)cc1O: 96
- CCCc1cc(O)c(C/C=C(\C)CCC=C(C)C)c(O)c1: 76

*Q* // output maximum inhibition (antagonism) MRGPRX2; input CCCc1cc(O)c2c(c1)OC(C)(C)[C@@H]1CCC(C)=C[C@@H]21 [THCV, tetrahydrocannabivarin] ; system MRGPRX2 (Homo sapiens)
*A* 21

*Q* # lookup: MRGPRX2 (Homo sapiens) maximum inhibition (antagonism) MRGPRX2, key = CCCCCc1cc2c(c(O)c1C(=O)O)C1C3C(CCC3(C)O2)C1(C)C (stereo not drawn)
*A* 44

*Q* Write down measured maximum inhibition (antagonism) MRGPRX2 (MRGPRX2 (Homo sapiens)) for this compound. `C=C(C)[C@@H]1CCC(C)=C[C@H]1c1c(O)cc(CCCCCCC)cc1O`
*A* 98
